test system: 677734-321-R-J1-PDC complex spheroid viability; experiment: Anticancer human tumor 677734-321-R-J1-PDC patient-derived soft tissue sarcoma cell line growth inhibition [POLQ]; settings: curve of first compound; second compound 0.0316 µM
Can you tell me IC50 for the items I'm about to list?

Reported IC50 ( CC(=O)O[C@H]1C(=O)[C@@]2(C)[C@H]([C@H](OC(=O)c3ccccc3)[C@]3(O)C[C@H](OC(=O)[C@H](O)[C@@H](NC(=O)c4ccccc4)c4ccccc4)C(C)=C1C3(C)C)[C@]1(OC(C)=O)CO[C@@H]1C[C@@H]2O + Cc1cccc(N(C)C(=O)C2C(O)CCN2c2nc(C)cc(C(F)(F)F)c2C#N)c1 ) = < 0.00949 µM

Reported IC50 ( O=C(c1cc(Cc2n[nH]c(=O)c3ccccc23)ccc1F)N1CCN(C(=O)C2CC2)CC1 + COC1C(OC(N)=O)C(O)C(Oc2ccc3c(O)c(NC(=O)c4ccc(O)c(CC=C(C)C)c4)c(=O)oc3c2C)OC1(C)C ) = > 10 µM

Reported IC50 ( C#Cc1c(F)ccc2cc(O)cc(-c3ncc4c(N5CC6CCC(C5)N6)nc(OCC56CCCN5CC(F)C6)nc4c3F)c12 (centres undefined) + Cc1cccc(N(C)C(=O)C2C(O)CCN2c2nc(C)cc(C(F)(F)F)c2C#N)c1 ) = > 10 µM

Reported IC50 ( O=c1[nH]cc(F)c(=O)[nH]1 + Nc1ccc(C#CCN(C(=O)Cc2ncc(C(F)(F)F)cc2C(F)(F)F)c2ccc(F)cc2)nn1 ) = > 10 µM

----------
Can you tell me pIC50 for the items I'm about to list?
system: 677734-321-R-J1-PDC complex spheroid viability; experiment: Anticancer human tumor 677734-321-R-J1-PDC cell line growth inhibition [POLQ]; conditions: curve of first compound; second compound 1 µM;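 further: spheroids exposed to compounds for one week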
pIC50: −log10 of the molar value.

Reported pIC50 ( Cn1ncnc1[C@H]1c2n[nH]c(=O)c3cc(F)cc(c23)N[C@@H]1c1ccc(F)cc1 + Cc1cccc(N(C)C(=O)C2C(O)CCN2c2nc(C)cc(C(F)(F)F)c2C#N)c1 ) = < 7.00

Reported pIC50 ( CC(C)n1c(=O)n(C)c2cnc3cc(F)c(-c4ccc(OCCCN5CCCCC5)nc4)cc3c21 + Nc1ccc(C#CCN(C(=O)Cc2ncc(C(F)(F)F)cc2C(F)(F)F)c2ccc(F)cc2)nn1 ) = < 5.00

Reported pIC50 ( CC(C)n1c(=O)n(C)c2cnc3cc(F)c(-c4ccc(OCCCN5CCCCC5)nc4)cc3c21 + COC1C(OC(N)=O)C(O)C(Oc2ccc3c(O)c(NC(=O)c4ccc(O)c(CC=C(C)C)c4)c(=O)oc3c2C)OC1(C)C ) = < 5.00

----------
Can you tell me viability, T/C for the items I'm about to list?
tested on: 677734-321-R-J1-PDC complex spheroid viability; test: Anticancer human tumor 677734-321-R-J1-PDC cell line growth inhibition [POLQ]; conditions: second compound 0.316 µM; first compound 0.0316 µM; stronger effect = lower value;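 further: spheroids exposed to compounds for one week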;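 on viability, T/C: 100% = vehicle DMSO treated spheroids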
Respond numerically; units are % and should not be typed.

Reported viability, T/C ( COc1cc(C2c3cc4c(cc3C(OC3OC5COC(C)OC5C(O)C3O)C3COC(=O)C23)OCO4)cc(OC)c1O (stereo not given) + Cc1cccc(N(C)C(=O)C2C(O)CCN2c2nc(C)cc(C(F)(F)F)c2C#N)c1 ) = 107

Reported viability, T/C ( C=CCn1c(=O)c2cnc(Nc3ccc(N4CCN(C)CC4)cc3)nc2n1-c1cccc(C(C)(C)O)n1 + Cc1cccc(N(C)C(=O)C2C(O)CCN2c2nc(C)cc(C(F)(F)F)c2C#N)c1 ) = 90.9

Reported viability, T/C ( CC(C)n1c(=O)n(C)c2cnc3cc(F)c(-c4ccc(OCCCN5CCCCC5)nc4)cc3c21 + Nc1ccc(C#CCN(C(=O)Cc2ncc(C(F)(F)F)cc2C(F)(F)F)c2ccc(F)cc2)nn1 ) = 90.2

Reported viability, T/C ( C=CCn1c(=O)c2cnc(Nc3ccc(N4CCN(C)CC4)cc3)nc2n1-c1cccc(C(C)(C)O)n1 + Nc1ccc(C#CCN(C(=O)Cc2ncc(C(F)(F)F)cc2C(F)(F)F)c2ccc(F)cc2)nn1 ) = 110

Reported viability, T/C ( CCCS(=O)(=O)Nc1ccc(F)c(C(=O)c2c[nH]c3ncc(-c4ccc(Cl)cc4)cc23)c1F + COC1C(OC(N)=O)C(O)C(Oc2ccc3c(O)c(NC(=O)c4ccc(O)c(CC=C(C)C)c4)c(=O)oc3c2C)OC1(C)C ) = 105

Reported viability, T/C ( COc1cc2cc(C(=O)CCC(=O)O)sc2cc1OC + Nc1ccc(C#CCN(C(=O)Cc2ncc(C(F)(F)F)cc2C(F)(F)F)c2ccc(F)cc2)nn1 ) = 104

Reported viability, T/C ( COc1cc(C2c3cc4c(cc3C(OC3OC5COC(C)OC5C(O)C3O)C3COC(=O)C23)OCO4)cc(OC)c1O (stereo not given) + COC1C(OC(N)=O)C(O)C(Oc2ccc3c(O)c(NC(=O)c4ccc(O)c(CC=C(C)C)c4)c(=O)oc3c2C)OC1(C)C ) = 100

Reported viability, T/C ( O=C(c1cc(Cc2n[nH]c(=O)c3ccccc23)ccc1F)N1CCN(C(=O)C2CC2)CC1 + Cc1cccc(N(C)C(=O)C2C(O)CCN2c2nc(C)cc(C(F)(F)F)c2C#N)c1 ) = 103

Reported viability, T/C ( CC(C)n1c(=O)n(C)c2cnc3cc(F)c(-c4ccc(OCCCN5CCCCC5)nc4)cc3c21 + Cc1cccc(N(C)C(=O)C2C(O)CCN2c2nc(C)cc(C(F)(F)F)c2C#N)c1 ) = 101

Reported viability, T/C ( Nc1ccn(C2OC(CO)C(O)C2(F)F)c(=O)n1 (stereo not given) + Cc1cccc(N(C)C(=O)C2C(O)CCN2c2nc(C)cc(C(F)(F)F)c2C#N)c1 ) = 31.8

----------
tested on: 677734-321-R-J1-PDC complex spheroid viability; experiment: Anticancer human tumor 677734-321-R-J1-PDC cell line growth inhibition [POLQ]; conditions: curve of first compound; second compound 0.0316 µM;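 further: spheroids exposed to compounds for one week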
ASSAY METRIC: IC50

Reported IC50 ( Cn1ncnc1[C@H]1c2n[nH]c(=O)c3cc(F)cc(c23)N[C@@H]1c1ccc(F)cc1 + COC1C(OC(N)=O)C(O)C(Oc2ccc3c(O)c(NC(=O)c4ccc(O)c(CC=C(C)C)c4)c(=O)oc3c2C)OC1(C)C ) = > 0.1 µM

Reported IC50 ( CCc1cc2c(N3CCc4c(cc(Cn5ccnc5)cc4-c4cn(C)nc4C(F)(F)F)C3=O)cc(C)nc2c(OC)n1 + COC1C(OC(N)=O)C(O)C(Oc2ccc3c(O)c(NC(=O)c4ccc(O)c(CC=C(C)C)c4)c(=O)oc3c2C)OC1(C)C ) = > 10 µM

Reported IC50 ( CC(C)n1c(=O)n(C)c2cnc3cc(F)c(-c4ccc(OCCCN5CCCCC5)nc4)cc3c21 + Cc1cccc(N(C)C(=O)C2C(O)CCN2c2nc(C)cc(C(F)(F)F)c2C#N)c1 ) = > 10 µM

Reported IC50 ( Cn1ncnc1[C@H]1c2n[nH]c(=O)c3cc(F)cc(c23)N[C@@H]1c1ccc(F)cc1 + Nc1ccc(C#CCN(C(=O)Cc2ncc(C(F)(F)F)cc2C(F)(F)F)c2ccc(F)cc2)nn1 ) = > 0.1 µM

Reported IC50 ( Cn1ncnc1[C@H]1c2n[nH]c(=O)c3cc(F)cc(c23)N[C@@H]1c1ccc(F)cc1 + Cc1cccc(N(C)C(=O)C2C(O)CCN2c2nc(C)cc(C(F)(F)F)c2C#N)c1 ) = > 0.1 µM

Reported IC50 ( CNCc1ccc(-c2[nH]c3cc(F)cc4c3c2CCNC4=O)cc1 + Cc1cccc(N(C)C(=O)C2C(O)CCN2c2nc(C)cc(C(F)(F)F)c2C#N)c1 ) = > 10 µM

Reported IC50 ( O=C(c1cc(Cc2n[nH]c(=O)c3ccccc23)ccc1F)N1CCN(C(=O)C2CC2)CC1 + Cc1cccc(N(C)C(=O)C2C(O)CCN2c2nc(C)cc(C(F)(F)F)c2C#N)c1 ) = > 10 µM

Reported IC50 ( CCc1cc2c(N3CCc4c(cc(Cn5ccnc5)cc4-c4cn(C)nc4C(F)(F)F)C3=O)ccnc2c(OC)n1 + Cc1cccc(N(C)C(=O)C2C(O)CCN2c2nc(C)cc(C(F)(F)F)c2C#N)c1 ) = > 10 µM

Reported IC50 ( CCc1c2c(nc3ccc(O)cc13)-c1cc3c(c(=O)n1C2)COC(=O)[C@]3(O)CC + Cc1cccc(N(C)C(=O)C2C(O)CCN2c2nc(C)cc(C(F)(F)F)c2C#N)c1 ) = < 0.00316 µM

Reported IC50 ( CCc1cc2c(N3CCc4c(cc(Cn5ccnc5)cc4-c4cn(C)nc4C(F)(F)F)C3=O)ccnc2c(OC)n1 + Nc1ccc(C#CCN(C(=O)Cc2ncc(C(F)(F)F)cc2C(F)(F)F)c2ccc(F)cc2)nn1 ) = > 10 µM
